The reported measurements were obtained from ChEMBL document CHEMBL4296183.

system: Cryptococcus neoformans; details: Concentration 20 uM; ASSAY_TEST Inhibition of Fungal Growth; detection method Resazurin; Absorption (OD600-OD570); plate type 384well; NBS; CORNING #3640
Description: Antifungal activity against Cryptococcus neoformans H99 ATCC 208821 (CO-ADD:FG_002); MIC in YNB media using NBS plates, by Resazurin OD(600-570)
Measured potencies and affinities stand elsewhere.
Here, each record is paired with measured Inhibition data.
Your answer should be a plain number; it is taken to be in %.

IN: Need Inhibition of `O=C1c2cc(O)c(O)cc2O[C@H](c2ccc(O)c(O)c2)[C@H]1O` , thanks.
OUT: -13.12

IN: Likewise for CN1CCc2cc3c(cc2C(=O)Cc2ccc4c(c2C1)OCO4)OCO3.Cl [PROTOPINE HYDROCHLORIDE] ?
OUT: -6.39

IN: Likewise for CCC1NC(=O)C(NC(=O)c2ncccc2O)C(C)OC(=O)C(c2ccccc2)NC(=O)C2CC(=O)CCN2C(=O)C(Cc2ccccc2)N(C)C(=O)C2CCCN2C1=O (configuration not stated) ?
OUT: -7.49

IN: Likewise for COC(=O)NC1C(C)OC(OC2C/C=C(/C)C3C=CC4C(OC5CC(OC6CCC(OC7CC(O)C(OC8CCC(O)C(C)O8)C(C)O7)C(C)O6)C(OC(C)=O)C(C)O5)C(C)CC(C)C4C3(C)/C(O)=C3/C(=O)OC4(CC(C=O)=CC(O)C4/C=C\2C)C3=O)CC1(C)[N+](=O)[O-] (configuration not stated) ?
OUT: -14.96

IN: Likewise for `COC(=O)[C@@H]1[C@H]2C[C@@H]3c4[nH]c5ccccc5c4CCN3C[C@@H]2CC[C@@H]1O` ?
OUT: -8.25

IN: Likewise for `O=c1oc2cc(O)ccc2c2oc3cc(O)ccc3c12` ?
OUT: 17.46

IN: Likewise for CC(C)=CC(=O)OC1C2C(C)C(=O)OC2C(O)C(C)C2C=CC(=O)C21C (configuration not stated) ?
OUT: -5.72
